The measured values listed here are drawn from patent US20250250357A1.

# assayed system: T1, human MSLN protein endogenously expressed on OVCAR3 tumor cells (human, UniProt Q13421 296-598)
# T1 construct: whole, on cells; endogenous expression on a tumor cell line; also called human mesothelin
# T1 sequence (Q13421 other isoform, or with tags, fused parts or gaps): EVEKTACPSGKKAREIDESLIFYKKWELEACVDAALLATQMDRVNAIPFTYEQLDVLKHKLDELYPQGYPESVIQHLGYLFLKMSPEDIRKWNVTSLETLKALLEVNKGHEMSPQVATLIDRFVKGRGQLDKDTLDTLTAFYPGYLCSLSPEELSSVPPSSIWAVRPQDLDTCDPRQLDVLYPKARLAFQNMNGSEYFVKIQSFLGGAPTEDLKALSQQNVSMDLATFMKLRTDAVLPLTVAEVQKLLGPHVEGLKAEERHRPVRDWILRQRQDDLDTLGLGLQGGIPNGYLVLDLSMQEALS
# assay overview: FACS on OVCAR3 cells;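 note: flow cytometry of chimeric antibody binding to OVCAR3 cells, 2 h on ice, read as cellular mean fluorescence intensity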
experimental endpoint: EC50 (nM)

binder="S009-F8-24.14 (antibody, human IgG1, kappa, V domains shown, human-murine chimeric antibody, human IgG1/kappa constant regions) VH: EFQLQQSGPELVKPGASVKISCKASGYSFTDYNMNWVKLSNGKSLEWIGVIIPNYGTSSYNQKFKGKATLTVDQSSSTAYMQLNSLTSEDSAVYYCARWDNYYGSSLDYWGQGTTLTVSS VL: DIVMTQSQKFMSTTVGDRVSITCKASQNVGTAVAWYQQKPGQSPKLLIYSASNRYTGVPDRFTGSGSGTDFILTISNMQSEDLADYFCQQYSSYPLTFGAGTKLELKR" unit=nM numeric_result=11.5
binder="S009-F8-5.15 (antibody, human IgG1, kappa, V domains shown, human-murine chimeric antibody, human IgG1/kappa constant regions) VH: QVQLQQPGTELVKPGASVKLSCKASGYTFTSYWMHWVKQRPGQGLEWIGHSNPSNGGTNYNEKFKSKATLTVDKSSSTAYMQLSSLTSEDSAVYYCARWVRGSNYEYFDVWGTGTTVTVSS VL: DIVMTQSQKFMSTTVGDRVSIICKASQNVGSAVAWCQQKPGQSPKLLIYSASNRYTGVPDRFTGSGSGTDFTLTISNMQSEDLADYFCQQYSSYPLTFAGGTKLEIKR" unit=nM numeric_result=4.08
binder="S009-F8-31.22 (antibody, human IgG1, kappa, V domains shown, human-murine chimeric antibody, human IgG1/kappa constant regions) VH: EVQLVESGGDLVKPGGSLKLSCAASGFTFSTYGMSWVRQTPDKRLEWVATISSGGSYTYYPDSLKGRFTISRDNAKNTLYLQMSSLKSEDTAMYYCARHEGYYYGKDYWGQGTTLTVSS VL: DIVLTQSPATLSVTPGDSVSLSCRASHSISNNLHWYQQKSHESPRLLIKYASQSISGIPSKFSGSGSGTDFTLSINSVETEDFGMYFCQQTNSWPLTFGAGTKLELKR" unit=nM numeric_result=0.64
binder="S009-F8-9.16 (antibody, human IgG1, kappa, V domains shown, human-murine chimeric antibody, human IgG1/kappa constant regions) VH: EVHLQQSGPVLVKPGASVKMSCKASGYTFTDYFMNWVKQSHGKSLEWIGVINPHNGYVNYNQKFQGRATLTVDKSSSTVYMELNSLTSEDSAVYHCARSAESAWFAYWGQRTLVTVSA VL: DVLMTQTPLSLPVSLGDQVSISCRSSQSIVHVKGNTYLEWYLQKPGQSPELLIYKVSNRFSGVPDRFSGGGSGTDFTLKISRVEPEDLGVYYCFQGSHLPYTFGGGTKLEIKR" unit=nM numeric_result=0.86
